Data origin, for the record: patent EP2931723B1

system: E. coli JMI 2692; test: MIC, antibacterial and synergistic activity; assay type: cell-based; details: E. coli JMI 2692 (NDM-1, TEM-1, CTX-M-15); Meropenem + inhibitor at 4 µg/mL
Property label: MIC Meropenem + inhibitor (µg/mL)

INSERT INTO measurements (compound, comparison_sign, obs_value) VALUES
  ('NCCONC(=O)[C@@H]1CC[C@@H]2CN1C(=O)N2OS(=O)(=O)O', '≤', 0.0312),
  ('O=C(NNC(=O)[C@H]1CC[C@H]2CN1C(=O)N2OS(=O)(=O)O)C1CNC1 (stereo in doubt)', '=', 0.125),
  ('CC(=O)NNC(=O)[C@@H]1CC[C@@H]2CN1C(=O)N2OS(=O)(=O)O', '≤', 0.031),
  ('O=C(NNC(=O)[C@H]1CC[C@H]2CN1C(=O)N2OS(=O)(=O)O)C1CC1 (stereo in doubt)', '=', 0.5),
  ('CCC(=O)NNC(=O)[C@@H]1CC[C@@H]2CN1C(=O)N2OS(=O)(=O)O', '=', 2);

----------
test system: K. pneumo JMI 2674; test: MIC, antibacterial and synergistic activity; format: cell-based; conditions: K. pneumo JMI 2674 (CTX-M15 (ESBL)); Aztreonam + inhibitor at 4 µg/mL
Property label: MIC Aztreonam + inhibitor (µg/mL)

INSERT INTO assay_data (compound, comparison_sign, obs_value) VALUES
  ('O=C(NNC(=O)[C@H]1CC[C@H]2CN1C(=O)N2OS(=O)(=O)O)C1CNC1 (stereo in doubt)', '=', 0.125),
  ('CC(=O)NNC(=O)[C@@H]1CC[C@@H]2CN1C(=O)N2OS(=O)(=O)O', '=', 0.125),
  ('CCC(=O)NNC(=O)[C@@H]1CC[C@@H]2CN1C(=O)N2OS(=O)(=O)O', '≤', 0.062),
  ('NCCONC(=O)[C@@H]1CC[C@@H]2CN1C(=O)N2OS(=O)(=O)O', '=', 0.5),
  ('O=C(NNC(=O)[C@H]1CC[C@H]2CN1C(=O)N2OS(=O)(=O)O)C1CC1 (stereo in doubt)', '≤', 0.062),
  ('O=C(NO[C@H]1CCCNC1)[C@@H]1CC[C@@H]2CN1C(=O)N2OS(=O)(=O)O', '=', 0.125);

----------
system: E. coli JMI 11103; test: MIC, antibacterial and synergistic activity; type: cell-based; conditions: E. coli JMI 11103 (CTX-M15 (Intermediate ESBL)); Aztreonam + inhibitor at 4 µg/mL
MIC Aztreonam + inhibitor overview
Property label: MIC Aztreonam + inhibitor

INSERT INTO assay_data (molecule, obs_value) VALUES
  ('CC(=O)NNC(=O)[C@@H]1CC[C@@H]2CN1C(=O)N2OS(=O)(=O)O', '≤0.062 µg/mL'),
  ('O=C(NNC(=O)[C@H]1CC[C@H]2CN1C(=O)N2OS(=O)(=O)O)C1CNC1 (stereo in doubt)', '≤0.06 µg/mL'),
  ('O=C(NO[C@H]1CCNC1)[C@@H]1CC[C@@H]2CN1C(=O)N2OS(=O)(=O)O', '≤.062 µg/mL'),
  ('O=C(NO[C@H]1CCCNC1)[C@@H]1CC[C@@H]2CN1C(=O)N2OS(=O)(=O)O', '≤.062 µg/mL'),
  ('CCC(=O)NNC(=O)[C@@H]1CC[C@@H]2CN1C(=O)N2OS(=O)(=O)O', '≤0.062 µg/mL'),
  ('NCCONC(=O)[C@@H]1CC[C@@H]2CN1C(=O)N2OS(=O)(=O)O', '0.5 µg/mL'),
  ('O=C(NNC(=O)[C@H]1CC[C@H]2CN1C(=O)N2OS(=O)(=O)O)C1CC1 (stereo in doubt)', '≤0.062 µg/mL');

----------
tested on: K. pneumo JMI 4106; assay: MIC, antibacterial and synergistic activity; assay type: cell-based; conditions: K. pneumo JMI 4106 (KPC-3, TEM-1, SHV-12, SHV-141); Meropenem + inhibitor at 4 µg/mL
Property label: MIC Meropenem + inhibitor

INSERT INTO assay_data (molecule, property_label, obs_value) VALUES
  ('CCC(=O)NNC(=O)[C@@H]1CC[C@@H]2CN1C(=O)N2OS(=O)(=O)O [Ex. 8]', 'MIC Meropenem + inhibitor', '≤0.0312 µg/mL'),
  ('NCCONC(=O)[C@@H]1CC[C@@H]2CN1C(=O)N2OS(=O)(=O)O [Ex. 3]', 'MIC Meropenem + inhibitor', '≤0.0312 µg/mL'),
  ('O=C(NO[C@H]1CCCNC1)[C@@H]1CC[C@@H]2CN1C(=O)N2OS(=O)(=O)O [Ex. 2]', 'MIC Meropenem + inhibitor', '≤.031 µg/mL'),
  ('O=C(NNC(=O)[C@H]1CC[C@H]2CN1C(=O)N2OS(=O)(=O)O)C1CNC1 (stereo in doubt) [Ex. 9]', 'MIC Meropenem + inhibitor', '0.125 µg/mL');

----------
test system: K.pneumo JMI 4109; assay: MIC, antibacterial and synergistic activity; type: cell-based; details: K.pneumo JMI 4109 (SHV-1, SHV-12); Meropenem + inhibitor at 4 µg/mL
Property label: MIC Meropenem + inhibitor

INSERT INTO measurements (compound, obs_value) VALUES
  ('CCC(=O)NNC(=O)[C@@H]1CC[C@@H]2CN1C(=O)N2OS(=O)(=O)O', '≤0.0312 µg/mL'),
  ('O=C(NNC(=O)[C@H]1CC[C@H]2CN1C(=O)N2OS(=O)(=O)O)C1CC1 (stereo in doubt)', '≤0.0312 µg/mL'),
  ('O=C(NO[C@H]1CCCNC1)[C@@H]1CC[C@@H]2CN1C(=O)N2OS(=O)(=O)O', '≤.031 µg/mL'),
  ('O=C(NNC(=O)[C@H]1CC[C@H]2CN1C(=O)N2OS(=O)(=O)O)C1CNC1 (stereo in doubt)', '≤0.03 µg/mL'),
  ('CC(=O)NNC(=O)[C@@H]1CC[C@@H]2CN1C(=O)N2OS(=O)(=O)O', '≤0.031 µg/mL'),
  ('O=C(NO[C@H]1CCNC1)[C@@H]1CC[C@@H]2CN1C(=O)N2OS(=O)(=O)O', '≤.031 µg/mL'),
  ('NCCONC(=O)[C@@H]1CC[C@@H]2CN1C(=O)N2OS(=O)(=O)O', '≤0.0312 µg/mL');

----------
A collection of compounds and their measured MIC
test system: K.pneumo JMI 4109; assay: MIC, antibacterial and synergistic activity; format: cell-based; conditions: K.pneumo JMI 4109 (SHV-1, SHV-12); substance alone
Property label: MIC (µg/mL)

INSERT INTO measurements (compound, unit_info, comparison_sign, obs_value) VALUES
  ('NCCONC(=O)[C@@H]1CC[C@@H]2CN1C(=O)N2OS(=O)(=O)O', 'µg/mL', '=', 2),
  ('O=C(NNC(=O)[C@H]1CC[C@H]2CN1C(=O)N2OS(=O)(=O)O)C1CNC1 (stereo in doubt)', 'µg/mL', '=', 4),
  ('C[C@@H](O)[C@H]1C(=O)N2C(C(=O)O)=C(S[C@@H]3CN[C@H](C(=O)N(C)C)C3)[C@H](C)[C@H]12 [Meropenem, meropenem, reference compound]', 'µg/mL', '≤', 1),
  ('CC(=O)NNC(=O)[C@@H]1CC[C@@H]2CN1C(=O)N2OS(=O)(=O)O', 'µg/mL', '>', 16),
  ('CC(C)(O/N=C(\C(=O)N[C@@H]1C(=O)N2C(C(=O)[O-])=C(C[n+]3ccccc3)CS[C@H]12)c1csc(N)n1)C(=O)O [Ceftazidime, ceftazidime, reference compound]', 'µg/mL', '=', 8),
  ('O=C(NNC(=O)[C@H]1CC[C@H]2CN1C(=O)N2OS(=O)(=O)O)C1CC1 (stereo in doubt)', 'µg/mL', '=', 2),
  ('O=C(NO[C@H]1CCCNC1)[C@@H]1CC[C@@H]2CN1C(=O)N2OS(=O)(=O)O', 'µg/mL', '=', 16),
  ('CCC(=O)NNC(=O)[C@@H]1CC[C@@H]2CN1C(=O)N2OS(=O)(=O)O', 'µg/mL', '=', 4),
  ('O=C(NO[C@H]1CCNC1)[C@@H]1CC[C@@H]2CN1C(=O)N2OS(=O)(=O)O', 'µg/mL', '=', 4);

----------
tested on: E. coli JMI 10770; experiment: MIC, antibacterial and synergistic activity; format: cell-based; details: Escherichia coli, JMI10770; E. coli JMI 10770 (CTX-M15 (Hyper ESBL)); substance alone
Property label: MIC (µg/mL)

INSERT INTO measurements (compound, property_label, comparison_sign, obs_value) VALUES
  ('O=C(NO[C@H]1CCCNC1)[C@@H]1CC[C@@H]2CN1C(=O)N2OS(=O)(=O)O', 'MIC', '=', 4),
  ('CC(=O)NNC(=O)[C@@H]1CC[C@@H]2CN1C(=O)N2OS(=O)(=O)O', 'MIC', '=', 8),
  ('O=C(NNC(=O)[C@H]1CC[C@H]2CN1C(=O)N2OS(=O)(=O)O)C1CNC1 (stereo in doubt)', 'MIC', '>', 16);
